All values here come from the Deep4Chem optical property database.

Test description: photoluminescence quantum yield (fraction); solvent given as SMILES
Condition description: in Cc1ccccc1
Note to self: photoluminescence quantum yield under 0.2 means Criterion met, ties and anything higher get Criterion not met.

Worked set:
[[record]]
mol = "Cc1ccc(-n2c(-c3ccccc3[N-]S(=O)(=O)c3ccc(C)cc3)[nH+]c3c4ccccc4c4ccccc4c32)cc1"
group = "Criterion not met"

[[record]]
mol = "CC1=[N+]2C(=C(c3ccc(N(C)C)cc3)c3ccc(C)n3[B-]2(F)F)C=C1"
group = "Criterion met"

[[record]]
mol = "CC(C)(C)c1ccc(C(C)(C)C)c(N2C(=O)c3cccc4c(-c5ccc(-c6ccc(N(c7ccccc7)c7ccccc7)cc6)s5)ccc(c34)C2=O)c1"
group = "Criterion not met"


Quick check: photoluminescence quantum yield of `c1ccc(-c2nc3c(ccc4[nH]ccc43)o2)cc1` under 0.2?
Criterion not met

For this molecule, is photoluminescence quantum yield lower than 0.2? `c1cc2ccc3ccc4cc3c2cc1c1ccc2ccc3ccc(cc3c2c1)c1ccc2ccc3ccc4cc3c2c1`
Criterion not met

Determine if `O=Cc1ccc2nc(C#Cc3ccc(N(c4ccccc4)c4ccccc4)cc3)sc2c1` shows photoluminescence quantum yield strictly lower than 0.2.
Criterion not met

Please let me know if `O=C1c2ccccc2C(=O)c2cc(-c3ccc(N(c4ccccc4)c4ccccc4)cc3)ccc21` shows photoluminescence quantum yield below 0.2.
Criterion met
